All figures here come from PubChem BioAssay AID624491.

Tested on: D54 ERlucT glycosylation luciferase reporter, luminescence, 24 h
protocol.notes: N-linked glycosylation inhibitors, luciferase reporter, dose response, D54 ERlucT cells, luminescence, cherry-picks (AID 624491);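 further: signal gain reflects blocked N-linked glycosylation of a luciferase reporter; actives raise luciferase signal so AC26 marks activators of the reporter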
For each record, write down the corresponding AC26.

Sample Cn1nc(C(F)(F)F)c(/C=N/OC(=O)c2ccccc2Cl)c1SCc1ccc(Cl)cc1 ; AC26 observed: 3.94 µM

Sample O=C(Nc1cccc(F)c1)c1cc(S(=O)(=O)N2CCOCC2)ccc1N1CCCC1 ; AC26 observed: 0.947 µM

Sample COc1ccccc1-c1cc(NC=O)c2ncc(-c3cccc(C(=O)N(C)C)c3)n2c1 ; AC26 observed: 4.02 µM

Sample CSC1=NC(C(Cl)(Cl)Cl)N=C(c2ccccc2)N1 (stereo not given) ; AC26 observed: 1.47 µM

Sample CCN(CC)CCCNC(=O)CSc1c2c(nc3cc(Cl)ccc13)CCCC2 ; AC26 observed: 11.4 µM

Sample COc1ccc2c(c1)[C@H]1[C@H](CO2)[C@H](c2ccccc2)[C@]2(C)C(=O)Nc3cc(F)ccc3C(=O)N12 ; AC26 observed: 0.019 µM

Sample CC(C)CCNC(=O)CCCOc1cc(=O)n(C)c2ccccc12 ; AC26 observed: 4.27 µM

Sample COc1ccc(C2Nc3ccc4ccccc4c3-c3c2c(=O)oc2ccccc32)cc1 (stereo not given) ; AC26 observed: 2.07 µM

Sample COc1ccc(C(=O)NC(=C(Cl)Cl)S(=O)(=O)c2ccc(C)cc2)cc1 ; AC26 observed: 10.2 µM

Sample COc1cc2c(cc1OC)C(c1cccs1)N(C(=O)c1ccncc1)CC2 (stereo not given) ; AC26 observed: 3.03 µM

---

System: D54 ERlucT glycosylation luciferase reporter, luminescence, 24 h
protocol.notes: N-linked glycosylation inhibitors, luciferase reporter, dose response, D54 ERlucT cells, luminescence, cherry-picks (AID 624491);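 further: signal gain reflects blocked N-linked glycosylation of a luciferase reporter; actives raise luciferase signal so AC26 marks activators of the reporter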
Activity calls are given as the source filed them.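 The calls were made as follows: active = fitted curve crossing a set activation limit at or below the highest valid dose tested; inconclusive = flat fit at 30 to 70% activation, or poor fit; inactive = the rest, including signal decreases.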
Pick from True for active, False for inactive when you respond.

Task: # lookup: test call for COC(=O)C1=C(c2cc3ccccc3o2)C[C@@H]2CC[C@H]1N2C(=O)N1CCOCC1
Result: False

Task: # lookup: test call for COc1ccc(C(=O)C=Cc2ccc(OCc3ccccc3)c(OC)c2)cc1OC
Result: True

Task: # lookup: test call for Cc1ccc(Nc2nc(-c3sc(C)nc3C)cs2)cc1
Result: True

Task: # lookup: test call for CCc1ccc(C2c3[nH]c4ccccc4c3CCN2C(=O)c2ccc(=O)n(C)n2)cc1 (stereo not given)
Result: True

Task: # lookup: test call for C=C(C)Cc1c(C)c(C#N)c2nc3ccccc3n2c1NCCCN(C)C
Result: True

---

System: D54 ERlucT glycosylation luciferase reporter, luminescence, 24 h
protocol.notes: N-linked glycosylation inhibitors, luciferase reporter, dose response, D54 ERlucT cells, luminescence, cherry-picks (AID 624491);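 further: signal gain reflects blocked N-linked glycosylation of a luciferase reporter; actives raise luciferase signal so AC26 marks activators of the reporter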
Activity calls are given as the source filed them.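 How the source made its calls: active means fitted curve crossing a set activation limit at or below the highest valid dose tested; inconclusive means flat fit at 30 to 70% activation, or poor fit; inactive means the rest, including signal decreases.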
Pick from active, inactive when you respond.

Task: # lookup: test call for CCOC(=O)/C=C/C(=O)Nc1ccc(S(=O)(=O)N(C)c2ccccc2)cc1
Result: inactive

Task: # lookup: test call for O=C(Nc1ccncc1)C1CCCN(S(=O)(=O)c2cccc3cccnc23)C1 (stereo unspecified)
Result: active

Task: # lookup: test call for CC(CC(=O)Nc1ccc2c(c1)c(=O)n(C)n2-c1cccs1)c1ccccc1 (stereo unspecified)
Result: active

Task: # lookup: test call for Cc1c(Cl)cccc1N=Cc1ccc([N+](=O)[O-])s1
Result: active

Task: # lookup: test call for CCN(CC)CCOc1ccc2c(c1)C(=NNC(=O)c1ccccn1)c1cc(OCCN(CC)CC)ccc1-2
Result: active

Task: # lookup: test call for COc1ccc(CNCC(=O)Nc2ccccc2-n2cccc2)cc1
Result: active

Task: # lookup: test call for CCOc1ccccc1C1CC(=O)Nc2cc3c(cc21)OCO3 (stereo unspecified)
Result: active

Task: # lookup: test call for OCC1OC(n2ccc3c(SCc4ccccc4)ncnc32)C(O)C1O (stereo unspecified)
Result: active

Task: # lookup: test call for Cc1ccccc1OCCOC(=O)c1c(-c2ccccc2)noc1C
Result: active

Task: # lookup: test call for O=C(NCCCn1ccnc1)c1cc(-c2ccccc2)on1
Result: active

Task: # lookup: test call for COc1ccc(-c2nc3c(C(=O)NCCN(C)C)cccc3c3ccccc23)cc1
Result: active
